target: recombinant human AMPK complex 7 (containing α2β1γ1) (Homo sapiens, UniProt P54646+Q9Y478)
Sequence (P54646 whole entry): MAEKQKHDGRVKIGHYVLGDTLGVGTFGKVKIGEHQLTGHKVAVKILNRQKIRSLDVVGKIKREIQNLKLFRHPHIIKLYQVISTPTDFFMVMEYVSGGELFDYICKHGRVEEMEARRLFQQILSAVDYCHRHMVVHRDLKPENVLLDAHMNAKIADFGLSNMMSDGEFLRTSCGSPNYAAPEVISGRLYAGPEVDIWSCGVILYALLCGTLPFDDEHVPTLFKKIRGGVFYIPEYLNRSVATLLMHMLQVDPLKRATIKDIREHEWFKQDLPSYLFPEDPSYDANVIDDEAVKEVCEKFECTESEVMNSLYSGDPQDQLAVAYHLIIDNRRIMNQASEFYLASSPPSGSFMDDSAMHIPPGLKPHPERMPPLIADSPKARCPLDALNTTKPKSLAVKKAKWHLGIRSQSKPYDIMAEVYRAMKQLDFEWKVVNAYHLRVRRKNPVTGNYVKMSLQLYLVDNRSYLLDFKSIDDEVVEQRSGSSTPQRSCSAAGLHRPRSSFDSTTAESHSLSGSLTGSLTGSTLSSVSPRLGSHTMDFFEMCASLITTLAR
Sequence (Q9Y478 whole entry): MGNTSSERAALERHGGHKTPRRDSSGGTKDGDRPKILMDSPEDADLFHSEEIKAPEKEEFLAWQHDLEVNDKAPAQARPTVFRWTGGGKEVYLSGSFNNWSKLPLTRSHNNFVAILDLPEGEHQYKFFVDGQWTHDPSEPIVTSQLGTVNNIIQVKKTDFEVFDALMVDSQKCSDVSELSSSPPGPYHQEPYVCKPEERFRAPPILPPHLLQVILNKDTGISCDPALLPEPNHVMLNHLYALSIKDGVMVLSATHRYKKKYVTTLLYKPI
Sequence (P54619 whole entry partner): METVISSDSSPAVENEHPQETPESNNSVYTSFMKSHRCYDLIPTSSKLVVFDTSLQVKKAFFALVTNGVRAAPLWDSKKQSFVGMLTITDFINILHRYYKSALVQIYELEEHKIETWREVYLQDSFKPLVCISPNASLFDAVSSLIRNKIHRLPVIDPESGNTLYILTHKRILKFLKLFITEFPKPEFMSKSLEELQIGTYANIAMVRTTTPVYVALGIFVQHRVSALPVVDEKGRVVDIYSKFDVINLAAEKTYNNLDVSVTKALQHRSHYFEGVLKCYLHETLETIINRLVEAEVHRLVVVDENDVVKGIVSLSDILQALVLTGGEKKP
test-method-notes: in vitro AMPK activation assay (AMPKSAMSF)
condition-description: inflection point reflecting 50% of the maximum activation; human AMPK Complex 7
Parameter: EC50. Scope: all listed entries.
endpoint-name: EC50 (nM)

OC[C@H]1OC[C@@H](Oc2nc3nc(-c4ccc(-c5ccc(-n6cnnn6)cc5)cc4)c(Cl)cc3[nH]2)[C@@H]1O : 3
OC[C@H]1OC[C@@H](Oc2nc3nc(-c4ccc(-c5ccccc5)cc4)c(Cl)cc3[nH]2)[C@@H]1O : 13
O=C(O)[C@H]1OC[C@@H](Oc2nc3nc(-c4ccc(-c5ccccc5)cc4)c(Cl)cc3[nH]2)[C@@H]1O : 332
OC[C@H]1OC[C@@H](Oc2nc3nc(-c4ccc(-c5ccc(-n6cccn6)nc5)cc4)c(Cl)cc3[nH]2)[C@@H]1O : 16
OC[C@H]1OC[C@@H](Oc2nc3nc(-c4ccc(-c5ccc(F)cc5)cc4)c(Cl)cc3[nH]2)[C@@H]1O : 38
OC[C@H]1OC[C@@H](Oc2nc3nc(-c4ccc(Br)cc4)c(Cl)cc3[nH]2)[C@@H]1O : 3650
OC[C@H]1OC[C@@H](Oc2nc3nc(-c4ccc(-c5ccc(-n6nccn6)cc5)cc4)c(Cl)cc3[nH]2)[C@@H]1O : 20
OC[C@H]1OC[C@@H](Oc2nc3nc(-c4ccc(-c5cccc(F)c5)cc4)c(Cl)cc3[nH]2)[C@@H]1O : 126
OC[C@H]1OC[C@@H](Oc2nc3nc(-c4ccc(-c5ccccc5F)cc4)c(Cl)cc3[nH]2)[C@@H]1O : 32
OC[C@H]1OC[C@@H](Oc2nc3nc(-c4ccc(-c5ccc(F)cc5F)cc4)c(Cl)cc3[nH]2)[C@@H]1O : 85
C[C@]1(O)[C@@H](CO)OC[C@H]1Oc1nc2nc(-c3ccc(-c4ccccc4)cc3)c(Cl)cc2[nH]1 : 289
N#CCCn1nnnc1-c1ccc(-c2ccc(-c3nc4nc(O[C@@H]5CO[C@H](CO)[C@H]5O)[nH]c4cc3Cl)cc2)cc1 : 8
OC[C@H]1OC[C@@H](Oc2nc3nc(-c4ccc(-c5ccc(-n6cccn6)cc5)cc4)c(Cl)cc3[nH]2)[C@@H]1O : 4
OC[C@H]1OC[C@@H](Oc2nc3nc(-c4ccc(-c5ccc(N6CCOCC6)cc5)cc4)c(Cl)cc3[nH]2)[C@@H]1O : 5
CC(C)(O)Cc1cnn(-c2ccc(-c3ccc(-c4nc5nc(O[C@@H]6CO[C@H](CO)[C@H]6O)[nH]c5cc4Cl)cc3)cc2)c1 : 5
OC[C@H]1OC[C@@H](Oc2nc3nc(-c4ccc(-c5ccc(-n6cncn6)cc5)cc4)c(Cl)cc3[nH]2)[C@@H]1O : 2
CC(C)(F)Cn1cc2c(n1)CN(c1ccc(-c3nc4nc(O[C@@H]5CO[C@H](CO)[C@H]5O)[nH]c4cc3Cl)cc1)C2 : 11
CC(C)(O)Cn1cc2c(n1)CN(c1ccc(-c3nc4nc(O[C@@H]5CO[C@H](CO)[C@H]5O)[nH]c4cc3Cl)cc1)C2 : 9
